- Test system: greenhouse red spider mite (Tetranychus urticae)
- method.description: Tetranychus urticae spray test, OP-resistant (TETRUR), bean leaf disks
- Assay type: in vivo
- cond: Tetranychus urticae, foliar, 144 h, application rate 500 g/ha, after 6 days; read-out: efficacy (spider mites killed)
observable: pest or weed control at 500 g/ha (%)
Answers are plain numbers, in %.

Sample answers from the record:
>  <compound>
Cc1cc(F)c(/N=C(\N)c2ccc(Cl)nc2)cc1SCC(F)(F)F [Ia-46]

>  <unit.of.measure>
%

>  <pest or weed control at 500 g/ha>
100

$$$$
>  <compound>
Cc1cc(F)c(/N=C(\c2ccccc2F)N(C)C)cc1[S+]([O-])CC(F)(F)F (stereo not shown) [Ib-87]

>  <unit.of.measure>
%

>  <pest or weed control at 500 g/ha>
100

$$$$
>  <compound>
CN(C)/C(=N\c1cc(SCC(F)(F)F)c(Cl)cc1Cl)c1ccc(Cl)cc1 [Ia-211]

>  <unit.of.measure>
%

>  <pest or weed control at 500 g/ha>
100

$$$$

Quick one: give me pest or weed control at 500 g/ha for each item below, same order please.
1. Cc1cc(F)c(/N=C2\SCC(=O)N2CC(F)(F)F)cc1[S+]([O-])CC(F)(F)F (stereo not shown) [Ib-71]
2. Cc1cc(F)c(/N=C(\N)C(C)C)cc1SCC(F)(F)F [Ia-225]
3. CN/C(=N\c1cc([S+]([O-])CC(F)(F)F)c(Cl)cc1Cl)c1ccc(Cl)nc1 (stereo not shown) [Ib-89]
4. N/C(=N/c1cc(SCC(F)(F)F)c(Cl)cc1Br)C(F)(F)F [Ia-124]
5. Cc1cc(F)c(/N=C(/C2CC2)N(C)C)cc1[S+]([O-])CC(F)(F)F (stereo not shown) [Ib-51]
6. N/C(=N/c1ccc(Cl)c([S+]([O-])CC(F)(F)F)c1)C(F)(F)F (stereo not shown) [Ib-108]
7. Cc1cc(C)c([S+]([O-])CC(F)(F)F)cc1/N=C(/c1ccccc1Cl)N1CCOCC1 (stereo not shown) [Ib-157]

Result:
1: 100; 2: 100; 3: 100; 4: 100; 5: 100; 6: 100; 7: 90

Quick one: give me pest or weed control at 500 g/ha for each item below, same order please.
1. Cc1cc(F)c(/N=C2\CCCN2C)cc1SCC(F)(F)F [Ia-39]
2. Cc1cc(F)c(/N=C(\c2ccc(C(F)(F)F)cc2)N(C)C)cc1[S+]([O-])CC(F)(F)F (stereo not shown) [Ib-124]
3. Cc1cc(Cl)c(SCC(F)(F)F)cc1/N=C(\N)C1(Cl)CC1 [Ia-74]
4. Cc1cc(C)c(SCC(F)(F)F)cc1/N=C(\N)c1cnccn1 [Ia-190]
5. Cc1cc(F)c(/N=C2\CCCN2C)cc1[S+]([O-])CC(F)(F)F (stereo not shown) [Ib-20]
6. Cc1cc(F)c(/N=C(\N)c2ccncn2)cc1[S+]([O-])CC(F)(F)F (stereo not shown) [Ib-65]

Result:
1: 100; 2: 90; 3: 100; 4: 90; 5: 100; 6: 100

###

- method.description: logP by HPLC on reversed-phase columns (C 18), EEC Directive 79/831 Annex V.A8
- Assay type: physicochemical
- cond: reversed-phase C18 HPLC column, pH 2.7, [a] LC-MS, acidic range, pH 2.7, 0.1% aqueous formic acid/acetonitrile; read-out: logP(HCOOH)
Give measured chromatographic logP for each item. Keep answers brief.
Numbers only.

Quick one: give me chromatographic logP for each item below, same order please.
1. Cc1cc(F)c(/N=C(\NCC2CCC(C(F)(F)F)CC2)C2CC2)cc1SCC(F)(F)F (centres unmarked) [Ia-251]
2. O=C(Nc1cc(SCC(F)(F)F)c(F)cc1Cl)C(F)(F)F [III-7]
3. Cc1cc(F)c(/N=C(/Nc2ccc(Cl)cc2)C(F)(F)F)cc1SCC(F)(F)F [Ia-31]
4. COc1ccccc1/C(=N\c1cc([S+]([O-])CC(F)(F)F)c(C)cc1F)N(C)C (centres unmarked) [Ib-161]
5. Cc1cc(F)c(/N=C(\c2ccc(Cl)s2)N(C)C)cc1SCC(F)(F)F [Ia-149]
6. Cc1cc(F)c(N=C(N)c2ccccc2F)cc1SCC(F)(F)F [Ia-143]
7. Nc1cccc(SCC(F)(F)F)c1

Result:
1: 2.23; 2: 3.33; 3: 4.73; 4: 1.28; 5: 2.11; 6: 1.37; 7: 2.01

Quick one: give me chromatographic logP for each item below, same order please.
1. O=C(Nc1cc(SCC(F)(F)F)c(Br)cc1Cl)C(F)(F)F [III-5]
2. O=C(Nc1cc(SSc2cc(NC(=O)C(F)(F)F)c(Br)cc2Br)c(Br)cc1Br)C(F)(F)F [IV-4]
3. Cc1cc(F)c(/N=C(/Nc2ccccc2)C(F)(F)F)cc1SCC(F)(F)F [Ia-96]
4. Cc1cc(F)c(/N=C2\CCCN2c2ccccc2)cc1[S+]([O-])CC(F)(F)F (centres unmarked) [Ib-55]
5. O=C(Nc1cc(SSc2cc(NC(=O)C(F)(F)F)c(Cl)cc2F)c(F)cc1Cl)C(F)(F)F [IV-5]

Result:
1: 3.78; 2: 5.62; 3: 4.37; 4: 1.27; 5: 4.45

Quick one: give me chromatographic logP for each item below, same order please.
1. O=C(Nc1cc(SSc2cc(NC(=O)C(F)(F)F)c(Cl)cc2Br)c(Br)cc1Cl)C(F)(F)F [IV-3]
2. Cc1cc(F)c(/N=C(/N(C)C)C(F)(F)F)cc1SCC(F)(F)F [Ia-01]
3. N/C(=N/c1ccc(Cl)c(SCC(F)(F)F)c1)C(F)(F)F [Ia-204]
4. Cc1cc(F)c(/N=C(\N)C2(F)CC2)cc1SCC(F)(F)F [Ia-27]
5. CN/C(=N/c1cc(SCC(F)(F)F)c(C)cc1F)c1ccc(OC)cc1 [Ia-165]

Result:
1. 5.42
2. 4.48
3. 3.1
4. 1.2
5. 1.68
